- method description: Circular dichroism (CD) α-helicity
- Type: physicochemical
Bridge positions count the residues as written; N and C are the ends. Square brackets hold non-standard residues; d marks the D form. Peptide text beside a SMILES is read from it. Lys(N3) = [N-]=[N+]=NCCCC[C@H](N)C(=O)O; R8 = C=CCCCCCC[C@@](C)(N)C(=O)O; Cba = N[C@@H](CC1CCC1)C(=O)O; S5 = C=CCCC[C@](C)(N)C(=O)O; βAla = NCCC(=O)O
reported metric: α-helicity by CD (%)

| molecule | unit | reading qualifier | measured number |
| --- | --- | --- | --- |
| CC(=O)N[C@@H](CCCCN=[N+]=[N-])C(=O)NCCC(=O)NCC(=O)N[C@H](C(=O)N[C@@H](Cc1ccccc1)C(=O)N[C@]1(C)CCCCCCC=CCCC[C@@](C)(C(=O)N[C@@H](CO)C(=O)N[C@@H](C)C(=O)N[C@@H](C)C(N)=O)NC(=O)[C@H](CC2CCC2)NC(=O)[C@H](CCC(N)=O)NC(=O)CNC(=O)[C@H](Cc2c[nH]c3ccccc23)NC(=O)[C@H](Cc2ccc(O)cc2)NC(=O)CNC1=O)[C@@H](C)O [L1G, E5G, A8G] (Ac-[Lys(N3)][βAla]GTF[R8]GYWGQ[Cba][S5]SAA-NH2; staple 6-13) | % | = | 20.4 |
| CC(=O)N[C@@H](CCCCN=[N+]=[N-])C(=O)NCCC(=O)N[C@@H](CC(C)C)C(=O)N[C@H](C(=O)N[C@@H](Cc1ccccc1)C(=O)N[C@]1(C)CCCCCCC=CCCC[C@@](C)(C(=O)N[C@@H](CO)C(=O)N[C@@H](C)C(=O)N[C@@H](C)C(N)=O)NC(=O)[C@H](CC2CCC2)NC(=O)[C@H](CCC(N)=O)NC(=O)[C@H](C)NC(=O)[C@H](Cc2c[nH]c3ccccc23)NC(=O)[C@H](Cc2ccc(O)cc2)NC(=O)CNC1=O)[C@@H](C)O [Peptide E5G] | % | = | 28.6 |
| CC(=O)N[C@@H](CCCCN=[N+]=[N-])C(=O)NCCC(=O)N[C@@H](CC(C)C)C(=O)N[C@H](C(=O)N[C@@H](Cc1ccccc1)C(=O)N[C@]1(C)CCCCCCC=CCCC[C@@](C)(C(=O)N[C@@H](CO)C(=O)N[C@@H](C)C(=O)N[C@@H](C)C(N)=O)NC(=O)[C@H](CC2CCC2)NC(=O)[C@H](CCC(N)=O)NC(=O)[C@H](C)N(C)C(=O)[C@H](Cc2c[nH]c3ccccc23)NC(=O)[C@H](Cc2ccc(O)cc2)NC(=O)[C@H](CCC(=O)O)NC1=O)[C@@H](C)O | % | < | 30 |
| CC(=O)N[C@@H](CCCCN=[N+]=[N-])C(=O)NCCC(=O)N[C@@H](CC(C)C)C(=O)N[C@H](C(=O)N[C@@H](Cc1ccccc1)C(=O)N[C@]1(C)CCCCCCC=CCCC[C@@](C)(C(=O)N[C@@H](CO)C(=O)N[C@@H](C)C(=O)N[C@@H](C)C(N)=O)NC(=O)[C@H](CC2CCC2)NC(=O)[C@H](CCC(N)=O)N(C)C(=O)[C@H](C)NC(=O)[C@H](Cc2c[nH]c3ccccc23)NC(=O)[C@H](Cc2ccc(O)cc2)NC(=O)[C@H](CCC(=O)O)NC1=O)[C@@H](C)O | % | < | 30 |

---

- method description: Circular dichroism (CD) α-helicity
- Assay type: physicochemical
- study conditions: Table 2; CD of free peptide, 25 °C, 1 mM Hepes pH 7.4, 5% methanol

| molecule | unit | Helicity (%) |
| --- | --- | --- |
| CC(=O)N[C@@H](CCCCN=[N+]=[N-])C(=O)NCCC(=O)N[C@@H](CC(C)C)C(=O)N[C@H](C(=O)N[C@@H](Cc1ccccc1)C(=O)N[C@]1(C)CCCCCCC=CCCC[C@@](C)(C(=O)N[C@@H](CO)C(=O)N[C@@H](C)C(=O)N(C)[C@@H](C)C(N)=O)NC(=O)[C@H](CC2CCC2)NC(=O)[C@H](CCC(N)=O)NC(=O)[C@H](C)NC(=O)[C@H](Cc2c[nH]c3ccccc23)NC(=O)[C@H](Cc2ccc(O)cc2)NC(=O)[C@H](CCC(=O)O)NC1=O)[C@@H](C)O | % | 47.5 |
| CC(=O)N[C@@H](CCCCN=[N+]=[N-])C(=O)NCCC(=O)N[C@@H](CC(C)C)C(=O)N[C@H](C(=O)N[C@@H](Cc1ccccc1)C(=O)N[C@]1(C)CCCCCCC=CCCC[C@@](C)(C(=O)NCC(=O)N[C@@H](C)C(=O)N[C@@H](C)C(N)=O)NC(=O)[C@H](CC2CCC2)NC(=O)[C@H](CCC(N)=O)NC(=O)[C@H](C)NC(=O)[C@H](Cc2c[nH]c3ccccc23)NC(=O)[C@H](Cc2ccc(O)cc2)NC(=O)[C@H](CCC(=O)O)NC1=O)[C@@H](C)O [Peptide S12G] | % | 46.5 |
| CC(=O)N[C@@H](CCCCN=[N+]=[N-])C(=O)NCCC(=O)N[C@@H](CC(C)C)C(=O)N[C@H](C(=O)N[C@@H](Cc1ccccc1)C(=O)N[C@]1(C)CCCCCCC=CCCC[C@@](C)(C(=O)N[C@@H](CO)C(=O)N[C@@H](C)C(=O)N[C@@H](C)C(N)=O)NC(=O)[C@H](CC2CCC2)NC(=O)[C@H](CCC(N)=O)NC(=O)C(C)(C)NC(=O)[C@H](Cc2c[nH]c3ccccc23)NC(=O)[C@H](Cc2ccc(O)cc2)NC(=O)[C@H](CCC(=O)O)NC1=O)[C@@H](C)O | % | 37.5 |
| CC(=O)N[C@@H](CCCCN=[N+]=[N-])C(=O)NCCC(=O)N(C)[C@@H](C)C(=O)N[C@H](C(=O)N[C@@H](Cc1ccccc1)C(=O)N[C@]1(C)CCCCCCC=CCCC[C@@](C)(C(=O)N[C@@H](CO)C(=O)N[C@@H](C)C(=O)N[C@@H](C)C(N)=O)NC(=O)[C@H](CC2CCC2)NC(=O)[C@H](CCC(N)=O)NC(=O)[C@H](C)NC(=O)[C@H](Cc2c[nH]c3ccccc23)NC(=O)[C@H](Cc2ccc(O)cc2)NC(=O)[C@H](CCC(=O)O)NC1=O)[C@@H](C)O | % | 47.2 |

---

Entries and their Kd values follow.
- tested target: human Mdm2 1–125 (Homo sapiens, UniProt Q00987)
- Construct: GST (N); His6 (internal); TEV cleavage site ENLYFQG (internal); made in house; host or cells: Escherichia coli BL21 (DE3) Rosetta T1R
- Sequence (Q00987 with tags, fused parts or gaps): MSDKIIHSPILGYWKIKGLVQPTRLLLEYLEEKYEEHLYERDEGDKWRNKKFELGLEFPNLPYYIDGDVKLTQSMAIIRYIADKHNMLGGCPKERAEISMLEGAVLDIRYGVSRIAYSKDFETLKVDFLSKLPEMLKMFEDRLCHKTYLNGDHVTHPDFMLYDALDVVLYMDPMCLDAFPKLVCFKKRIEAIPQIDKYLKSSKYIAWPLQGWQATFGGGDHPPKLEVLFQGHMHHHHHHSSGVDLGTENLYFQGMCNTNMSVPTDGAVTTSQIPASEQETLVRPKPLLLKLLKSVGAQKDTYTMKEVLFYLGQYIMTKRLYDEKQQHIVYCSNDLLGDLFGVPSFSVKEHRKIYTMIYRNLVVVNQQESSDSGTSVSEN
- method description: Mdm2 binding assay (competitive fluorescence anisotropy/polarization)
- study conditions: Table 1; competitive fluorescence polarization; read-out: Mdm2 (nM), Mdm2 binding (Kd)
Bridge positions count the residues as written; N and C are the ends. Square brackets hold non-standard residues; d marks the D form. Peptide text beside a SMILES is read from it. R8 = C=CCCCCCC[C@@](C)(N)C(=O)O; Cba = N[C@@H](CC1CCC1)C(=O)O; S5 = C=CCCC[C@](C)(N)C(=O)O
reported metric: Kd

| molecule | reported metric | result |
| --- | --- | --- |
| CC(=O)N[C@@H](CC(C)C)C(=O)N[C@H](C(=O)N[C@@H](Cc1ccccc1)C(=O)N[C@]1(C)CCCCCCC=CCCC[C@@](C)(C(=O)N[C@@H](CO)C(=O)N[C@@H](C)C(=O)N[C@H](C)C(N)=O)NC(=O)[C@H](CC2CCC2)NC(=O)[C@H](CC(C)C)NC(=O)[C@H](CCC(N)=O)NC(=O)[C@H](Cc2c[nH]c3ccccc23)NC(=O)[C@H](Cc2ccc(O)cc2)NC(=O)[C@H](CCC(=O)O)NC1=O)[C@@H](C)O | Kd | 18 nM |
| CC(=O)N[C@@H](CC(C)C)C(=O)N[C@H](C(=O)N[C@@H](Cc1ccccc1)C(=O)N[C@]1(C)CCCCCCC=CCCC[C@@](C)(C(=O)N[C@@H](CO)C(=O)N[C@@H](C)C(=O)N[C@@H](C)C(N)=O)NC(=O)[C@H](CC2CCC2)NC(=O)[C@@H](CC(C)C)NC(=O)[C@H](CCC(N)=O)NC(=O)[C@H](Cc2c[nH]c3ccccc23)NC(=O)[C@H](Cc2ccc(O)cc2)NC(=O)[C@H](CCC(=O)O)NC1=O)[C@@H](C)O | Kd | 30 nM |
| CC(=O)N[C@@H](CC(C)C)C(=O)N[C@H](C(=O)N[C@@H](Cc1ccccc1)C(=O)N[C@]1(C)CCCCCCC=CCCC[C@@](C)(C(=O)N[C@@H](CO)C(=O)N[C@@H](C)C(=O)N[C@@H](C)C(N)=O)NC(=O)[C@H](CC2CCC2)NC(=O)[C@H](CC(C)C)NC(=O)[C@H](CCC(N)=O)NC(=O)[C@H](C)NC(=O)[C@H](Cc2ccc(O)cc2)NC(=O)[C@H](CCC(=O)O)NC1=O)[C@@H](C)O [Peptide W7A] (Ac-LTF[R8]EYAQL[Cba][S5]SAA-NH2; staple 4-11) | Kd | 5090 nM |
| CC(=O)N[C@@H](CC(C)C)C(=O)N[C@H](C(=O)N[C@@H](Cc1ccccc1)C(=O)N[C@]1(C)CCCCCCC=CCCC[C@@](C)(C(=O)N[C@@H](CO)C(=O)N[C@@H](C)C(=O)N[C@@H](C)C(N)=O)NC(=O)[C@H](CC2CCC2)NC(=O)[C@H](CC(C)C)NC(=O)[C@H](CCC(N)=O)NC(=O)[C@H](Cc2c[nH]c3ccccc23)NC(=O)[C@@H](Cc2ccc(O)cc2)NC(=O)[C@H](CCC(=O)O)NC1=O)[C@@H](C)O | Kd | 286 nM |
| CC(=O)N[C@H](CC(C)C)C(=O)N[C@H](C(=O)N[C@@H](Cc1ccccc1)C(=O)NC(C)(C)C(=O)N[C@@H](CCC(=O)O)C(=O)N[C@@H](Cc1ccc(O)cc1)C(=O)N[C@@H](Cc1c[nH]c2ccccc12)C(=O)N[C@@H](CCC(N)=O)C(=O)N[C@@H](CC(C)C)C(=O)N[C@@H](CC1CCC1)C(=O)NC(C)(C)C(=O)N[C@@H](CO)C(=O)N[C@@H](C)C(=O)N[C@@H](C)C(N)=O)[C@@H](C)O | Kd | 277 nM |
| CC(=O)N[C@@H](CC(C)C)C(=O)N[C@H](C(=O)N[C@@H](Cc1ccccc1)C(=O)NC(C)(C)C(=O)N[C@@H](CCC(=O)O)C(=O)N[C@@H](Cc1ccc(O)cc1)C(=O)N[C@@H](Cc1c[nH]c2ccccc12)C(=O)N[C@@H](CCC(N)=O)C(=O)N[C@@H](CC(C)C)C(=O)N[C@@H](CC1CCC1)C(=O)NC(C)(C)C(=O)N[C@@H](CO)C(=O)N[C@@H](C)C(=O)N[C@@H](C)C(N)=O)[C@@H](C)O | Kd | 43.1 nM |
| CC(=O)N[C@@H](CC(C)C)C(=O)N[C@H](C(=O)N[C@@H](Cc1ccccc1)C(=O)N[C@]1(C)CCCCCCC=CCCC[C@@](C)(C(=O)N[C@@H](CO)C(=O)N[C@@H](C)C(=O)N[C@@H](C)C(N)=O)NC(=O)[C@H](CC2CCC2)NC(=O)[C@H](CC(C)C)NC(=O)[C@@H](CCC(N)=O)NC(=O)[C@H](Cc2c[nH]c3ccccc23)NC(=O)[C@H](Cc2ccc(O)cc2)NC(=O)[C@H](CCC(=O)O)NC1=O)[C@@H](C)O | Kd | 22 nM |
| CC(=O)N[C@@H](CC(C)C)C(=O)N[C@H](C(=O)N[C@H](Cc1ccccc1)C(=O)N[C@]1(C)CCCCCCC=CCCC[C@@](C)(C(=O)N[C@@H](CO)C(=O)N[C@@H](C)C(=O)N[C@@H](C)C(N)=O)NC(=O)[C@H](CC2CCC2)NC(=O)[C@H](CC(C)C)NC(=O)[C@H](CCC(N)=O)NC(=O)[C@H](Cc2c[nH]c3ccccc23)NC(=O)[C@H](Cc2ccc(O)cc2)NC(=O)[C@H](CCC(=O)O)NC1=O)[C@@H](C)O | Kd | 6480 nM |
| CC(=O)N[C@@H](CC(C)C)C(=O)N[C@H](C(=O)N[C@@H](Cc1ccccc1)C(=O)N[C@]1(C)CCCCCCC=CCCC[C@@](C)(C(=O)N[C@H](CO)C(=O)N[C@@H](C)C(=O)N[C@@H](C)C(N)=O)NC(=O)[C@H](CC2CCC2)NC(=O)[C@H](CC(C)C)NC(=O)[C@H](CCC(N)=O)NC(=O)[C@H](Cc2c[nH]c3ccccc23)NC(=O)[C@H](Cc2ccc(O)cc2)NC(=O)[C@H](CCC(=O)O)NC1=O)[C@@H](C)O | Kd | 8.6 nM |
